# assayMethodText: qHTS Assay for Spectroscopic Profiling in 4-MU Spectral Region
# assaySetup: compound autofluorescence, 340/450 nm, 4-MU equivalents
Hit rate of the full screen: of about 59,000 compounds, about 6,200 (11%) were called active. Another 9% or so got no clear call; they are omitted. Rule as the data show it: active = max dye-equivalent concentration above about 10 nM; inconclusive = mostly about 1.1 nM to 9.6 nM; inactive = weaker than that. Only a selection was taken, and actives are over-represented in it overall.
Bench note: report the call from active, inactive

Before answering, review these 6 worked examples.
{"columns": ["compound", "assignedClass"],
 "data": [
  ["CC(=O)c1c(O)c(C)c(O)c(Cc2c(O)c3c(c(C(=O)/C=C\\c4ccccc4)c2O)OC(C)(C)C=C3)c1O", "inactive"],
  ["c1ccc(CN2CC[C@@]3(CCCNC3)C2)cc1", "active"],
  ["C[C@H](Br)C(=O)N[C@H](CO)C(=O)O", "inactive"],
  ["CC[C@]1(O)C(=O)OCc2c1cc1n(c2=O)Cc2cc3ccccc3nc2-1", "active"],
  ["COc1cc(C[C@H](C)N)c(OC)cc1I", "inactive"],
  ["N[C@H](C(=O)O)c1cc(=O)[nH]o1", "inactive"]
]}

Exercise: For this compound, state the assay outcome: C=CCN1C(=O)C2(C(C(=O)OCC)=C(N)Oc3c2c(=O)oc2ccccc32)c2ccccc21 (centres undefined)
Solution: inactive

Exercise: Try the compound `CCN1C[C@]2(C)CC[C@H](O)[C@@]34[C@@H]5CC6[C@@H](OC)C[C@@](O)([C@@H]5[C@@H]6O)[C@H](C[C@@H]23)[C@H]14`
Solution: inactive

Exercise: Try the compound `Cc1ccc(S(=O)(=O)O[C@H]2CN3CCC2CC3)cc1`
Solution: inactive

Exercise: Try the compound `NC[C@H](O)c1ccc(O)cc1`
Solution: inactive

Exercise: Try the compound C[N+]1(C)C2CC(OC(=O)C(CO)c3ccccc3)CC1[C@@H]1O[C@H]21 (some centres undefined)
Solution: inactive

Exercise: Try the compound `CC(C)(O)/C=C\C(=O)[C@](C)(O)[C@H]1[C@H](O)C[C@]2(C)[C@@H]3CC=C4[C@@H](C=C(O)C(=O)C4(C)C)[C@]3(C)C(=O)C[C@@]12C`
Solution: inactive

###

# assayMethodText: qHTS Assay for Spectroscopic Profiling in 4-MU Spectral Region
# assaySetup: compound autofluorescence, 340/450 nm, 4-MU equivalents
Out of some 59,000 compounds screened, about 6,200 (11%) were called active. About 9% were inconclusive and are not listed. Rule as the data show it: active = max dye-equivalent concentration above about 10 nM; inconclusive = mostly about 1.1 nM to 9.6 nM; inactive = weaker than that. Only a selection was taken, and actives are over-represented in it overall.
Bench note: report the call from yes = active, no = inactive

{"columns": ["molecule", "assignedClass"],
 "data": [
  ["CCOC(=O)c1c(N)n(Cc2ccccc2)c2nc3ccccc3nc12", "yes"],
  ["CCN(CC)CCn1ncc2c(N)ncnc21", "no"]
]}

Exercise: For this molecule, state the assay outcome: CN1[C@@H]2CC[C@H]1CC(OC(=O)c1cc(Cl)cc(Cl)c1)C2 (some centres not stated)
Solution: no

Exercise: Try the molecule `c1ccc(N2CC[C@@]3(CCCNC3)C2)nc1`
Solution: no

Exercise: Try the molecule `O=C(Nc1cccc(F)c1)N1CC[C@@]2(CCCN(C(=O)Oc3ccccc3)C2)C1`
Solution: no

Exercise: Try the molecule `O=C(c1cc(-c2ccncc2)nc2ccccc12)N1CCC2(CC1)OCCO2`
Solution: no

Exercise: Try the molecule `C[C@@]12CC[C@H]3[C@@H](CC[C@]4(O)C[C@H](O)CC[C@@]34C=O)[C@]1(O)CC[C@@H]2C1=CC(=O)OC1`
Solution: no

Exercise: Try the molecule `c1csc(CN2CC3(CCNCC3)C2)n1`
Solution: no

Exercise: Try the molecule `CC1=CC(=O)C2=C(C)C[C@H](O)[C@@H]3[C@@H](OC(=O)[C@H]3C)[C@H]12`
Solution: no

Exercise: Try the molecule `c1ccc2c(c1)[I+]c1ccccc1-2`
Solution: no

Exercise: Try the molecule `CCN1C[C@@]2(COC)CC[C@H](OC)[C@]34[C@@H]1[C@]1(OCO[C@@]15C[C@@H](OC)C1C[C@H]3[C@H]5[C@@H]1OC)[C@H](O)[C@@H]24`
Solution: no

Exercise: Try the molecule `Cc1cccc(-n2c(C)nc3cc(C(=O)N4CCC5(CC4)OCCO5)ccc32)c1`
Solution: no
